Tested on: Saccharomyces cerevisiae;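 also: PSI is a weighted mean of sequencing reads over stability bins, variants kept only with over 10 reads, mCherry proximal and sfGFP distal, peptide attached via GGGS linker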
Test: protein stability index of tFT-peptide fusion (C-terminal peptide) (PSI (0-1 scale)); higher = more stable (slower turnover)
Conditions: genetic background: wild type; temperature: 30 C
Met means recorded protein stability index is 0.7 or above; Not met means it is below 0.7.

Say whether VFTSPPPLPSPP shows protein stability index of 0.7 or more. Met

Reported protein stability index at or above 0.7? PSHAAPVPAPQP Not met

Is protein stability index at least 0.7? Consider RNWVVDGWRRFP Not met

For this sequence, is measured protein stability index 0.7 or higher? ASLAPTLPPPPQ Not met

Reported protein stability index at or above 0.7? PTPTNLLPPRKY Not met

Answer whether protein stability index of RHGDGGRGRVDG is greater than or equal to 0.7. Met

Is the recorded value of protein stability index equal to or greater than 0.7 for this sequence? GIGRRIGSELSF Not met

State whether the measured protein stability index reaches 0.7, counting equality as reaching it, for LKALNKFEDTGN Not met

Tell me whether protein stability index is at least 0.7 here: RPLVSRLPIFIR Not met

Data provenance is the supplement of paper PMC10724198.
